Test system: SUDHL5
Exercise: state measured pIC50 for each of the molecules provided.
One number for each entry, as −log10 of the molar value.

Consider the following illustrative entries.
| Molecule | Subject Of Test | Reported |
| --- | --- | --- |
| CN1CCCn2c(C(=O)O)c(CCCOc3cccc4ccccc34)c3cccc(c32)-c2c(CCN3CCOCC3)nn(C)c2C1 (single isomer, unassigned; enantiomer 1) [Example 125] | SUDHL5 | 5.20 |
| Cn1nc(CN2CCOCC2)c2c1COCCCn1c(C(=O)O)c(CCCOc3cccc4ccccc34)c3cccc-2c31 (single isomer, unassigned; enantiomer 2) [Example 140] | SUDHL5 | 4.78 |
| CCc1c2c(nn1C)COCCCCn1c(C(=O)O)c(CCCOc3cccc4cc(F)ccc34)c3cccc-2c31 (racemic) [Example 281] | SUDHL5 | 5.73 |
| CN1CCCn2c(C(=O)O)c(CCCOc3cccc4ccccc34)c3cccc(c32)-c2c(CCN3CCOCC3)nn(C)c2C1 (single isomer, unassigned; enantiomer 2) [Example 126] | SUDHL5 | 4.56 |

-- ask What measured pIC50 goes with CCc1nn(C)c2c1-c1cccc3c(CCCOc4cccc5cc(C(F)(F)F)ccc45)c(C(=O)O)n(c13)CCCCOC2 (racemic) [Example 313] ?
-- reply 4.51
